ASSAY: Pharmacokinetics of Actimid in relapsed/refractory multiple myeloma patients
Format: in vivo, human
CONDITION SUMMARY: human, in vivo, 1 mg, tmax
METRIC NAME: Tmax (h)
# value in h; strip the unit string

Quick one: Tmax for Nc1cccc2c1C(=O)N(C1CCC(=O)NC1=O)C2=O (stereo not shown) ? 3.3

----------
ASSAY: Pharmacokinetics of Actimid in relapsed/refractory multiple myeloma patients
Assay type: in vivo, human
CONDITION SUMMARY: human, in vivo, 2 mg, tmax
METRIC NAME: Tmax (h)
# value in h; strip the unit string

Quick one: Tmax for Nc1cccc2c1C(=O)N(C1CCC(=O)NC1=O)C2=O (stereo not shown) ? 2.7
